- System tested: CYP1A2 (Homo sapiens)
- Construct: 0.1 mg/mL protein human liver microsomes (BD Gentest); tissue BD Gentest; host or cells: human liver microsomes
- Test: Cocktail assay for CYPs, phenacetin O-deethylation (CYP1A2), human liver microsomes
- Assay type: biochemical
- Condition label: 10 μM phenacetin, 0.1 mg/mL human liver microsomes, 10 min at 37° C.; read-out: CYP IC50 (nM) 1A2
# note: boundary value 3000 nM maps to not met; IC50 below it maps to met

# Compound, Group label
rows = [
    ("CC(C)(C)OC(=O)N1CCCC1c1ccccc1-c1cncn1C1CC1 (stereo not drawn)", "not met"),
    ("COc1ccc(OC)c(S(=O)(=O)N2CCCC2c2ccccc2-c2cncn2CCc2ccc(F)cc2)c1 (stereo not drawn)", "met"),
    ("CC(=O)Nc1ncc(S(=O)(=O)N2CCc3cc(-c4cncn4CCc4ccc(F)cc4)ccc3C2)s1", "met"),
    ("O=S(=O)(NCc1ccccc1-c1cncn1CCc1ccc(F)cc1)c1cccnc1", "not met"),
    ("CC(NS(=O)(=O)c1cnc(N2CCN(C)CC2)s1)c1ccc(-c2cncn2CCc2ccc(F)cc2)cc1 (stereo not drawn)", "not met"),
    ("O=S(=O)(c1cnc(N2CCN3C[C@H](O)C[C@H]3C2)s1)N1CCc2cccc(-c3cncn3CCc3ccc(F)cc3)c2C1", "not met"),
    ("CN1CCCC1c1ccccc1-c1cncn1CCc1ccc(F)cc1 (single isomer, unassigned) [Compound 45b]", "not met"),
    ("CN1CCN(c2ncc(S(=O)(=O)N3CCc4c(-c5cncn5CCc5ccc(F)cc5)ccnc4C3)s2)CC1", "met"),
    ("CC(C)NC(=O)N1CCCC1c1ccccc1-c1cncn1CCc1ccc(F)cc1 (single isomer, unassigned) [Compound 46a]", "not met"),
    ("CC(C)OC(=O)N1CCCC1c1ccccc1-c1cncn1CCc1ccc(F)cc1 (single isomer, unassigned) [Compound 39b]", "not met"),
    ("CC(=O)Nc1ncc(S(=O)(=O)NC2(c3ccc(-c4cncn4[C@H](C)c4ccc(F)cc4)cc3)CC2)s1", "not met"),
    ("O=S(=O)(c1cnc(Cl)c(Br)c1)N1CCCC1c1cccc(-c2cncn2CCc2ccc(F)cc2)c1 (stereo not drawn)", "met"),
    ("CN1CCN(c2ncc(S(=O)(=O)N3CCc4c(ncnc4-c4cncn4CCc4ccc(F)cc4)C3)s2)CC1", "not met"),
    ("O=C(NCc1ccc(S(=O)(=O)N2CCCC2c2cccc(-c3cncn3CCc3ccc(F)cc3)c2)s1)c1ccccc1 (single isomer, unassigned) [Compound 55b]", "met"),
    ("CC(C)NC(=O)N1CCCC1c1ccccc1-c1cncn1CCc1ccc(F)cc1 (single isomer, unassigned) [Compound 46b]", "not met"),
    ("O=S(=O)(c1ccc2c(c1)OCO2)N1CCCC1c1ccccc1-c1cncn1CCc1ccc(F)cc1 (stereo not drawn)", "not met"),
    ("O=C(NCc1ccc(S(=O)(=O)N2CCCC2c2cccc(-c3cncn3CCc3ccc(F)cc3)c2)s1)c1ccccc1 (single isomer, unassigned) [Compound 55a]", "met"),
    ("O=S(=O)(c1cnc(N2CCN3C[C@H](O)C[C@H]3C2)s1)N1CCCC1c1ccccc1-c1cncn1CCc1ccc(F)cc1 (single isomer, unassigned) [Compound 22a]", "not met"),
]

====

- System tested: CYP1A2 (Homo sapiens, UniProt P05177)
- Construct: 0.1 mg/mL protein human liver microsomes (BD Gentest); tissue BD Gentest; host or cells: human liver microsomes
- Sequence (P05177 whole entry): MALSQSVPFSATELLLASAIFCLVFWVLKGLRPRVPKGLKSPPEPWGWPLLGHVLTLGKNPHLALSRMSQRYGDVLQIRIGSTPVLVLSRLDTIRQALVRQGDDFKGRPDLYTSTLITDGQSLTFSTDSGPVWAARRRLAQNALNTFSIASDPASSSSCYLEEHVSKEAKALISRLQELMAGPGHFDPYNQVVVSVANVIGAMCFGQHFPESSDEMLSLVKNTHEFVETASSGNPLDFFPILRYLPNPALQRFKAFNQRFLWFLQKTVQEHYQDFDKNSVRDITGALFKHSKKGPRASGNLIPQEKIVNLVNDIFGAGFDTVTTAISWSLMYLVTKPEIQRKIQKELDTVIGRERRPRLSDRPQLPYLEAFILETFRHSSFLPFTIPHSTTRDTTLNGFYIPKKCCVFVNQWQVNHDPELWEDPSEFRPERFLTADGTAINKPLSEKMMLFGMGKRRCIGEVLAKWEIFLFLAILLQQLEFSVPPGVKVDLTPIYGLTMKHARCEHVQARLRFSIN
- Test: Cocktail assay for CYPs, phenacetin O-deethylation (CYP1A2), human liver microsomes
- Format: biochemical
- Condition label: 10 μM phenacetin, 0.1 mg/mL human liver microsomes, 10 min at 37° C.; read-out: CYP IC50 (nM) 1A2
- Method: Determination of IC50 in a Cocktail Assay for CYPs 1A2, 2C9, 2C19, 2D6 and 3A4: This assay was performed in a standard 96-well plate design. […] The production of the metabolite of each probe substrate was determined after incubation for 10 min at 37° C. Quantitation of the metabolite peak area ratio against an internal standard (tolbutamide) was determined by LC/MS/MS analysis following acetonitrile treatment of the incubations. […]
Reported IC50 by item:
Endpoint name: IC50

# Compound, System tested, Experimental result
records = [
    ("Fc1ccc(CCn2cncc2-c2ccccc2C2CCCN2)cc1 (stereo not drawn) [Compound 40]", "CYP1A2 (Homo sapiens, UniProt P05177)", "> 10000 nM"),
    ("O=S(=O)(c1ccc(NCC(O)C2CC2)nc1)N1CCCC1c1ccccc1-c1cncn1CCc1ccc(F)cc1 (single isomer, unassigned) [Compound 34b]", "CYP1A2 (Homo sapiens, UniProt P05177)", "> 10000 nM"),
    ("O=C(C1CCOCC1)N1CCCC1c1cccc(-c2cncn2CCc2ccc(F)cc2)c1 (single isomer, unassigned) [Compound 49b]", "CYP1A2 (Homo sapiens, UniProt P05177)", "> 10000 nM"),
]

====

Reported IC50 by item:
- System tested: CYP2C19 (Homo sapiens)
- Construct: 0.1 mg/mL protein human liver microsomes (BD Gentest); tissue BD Gentest; host or cells: human liver microsomes
- Sequence (P33261 whole entry): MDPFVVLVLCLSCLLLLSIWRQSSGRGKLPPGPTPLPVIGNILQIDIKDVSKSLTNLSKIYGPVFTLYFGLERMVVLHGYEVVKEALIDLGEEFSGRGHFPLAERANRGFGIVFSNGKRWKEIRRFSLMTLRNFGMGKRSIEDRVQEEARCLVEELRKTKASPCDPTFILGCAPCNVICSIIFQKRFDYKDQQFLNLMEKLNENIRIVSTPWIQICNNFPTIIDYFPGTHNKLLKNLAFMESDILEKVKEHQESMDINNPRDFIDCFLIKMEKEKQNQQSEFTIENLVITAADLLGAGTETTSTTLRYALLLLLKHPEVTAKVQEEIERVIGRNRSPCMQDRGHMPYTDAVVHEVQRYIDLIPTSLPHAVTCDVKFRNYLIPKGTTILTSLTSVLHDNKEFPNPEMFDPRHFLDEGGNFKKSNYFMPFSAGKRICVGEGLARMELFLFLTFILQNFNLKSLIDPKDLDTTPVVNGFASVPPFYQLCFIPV
- Test: Cocktail assay for CYPs, mephenytoin 4′-hydroxylation (CYP2C19), human liver microsomes
- Type: biochemical
- Condition label: 30 μM mephenytoin, 0.1 mg/mL human liver microsomes, 10 min at 37° C.; read-out: CYP IC50 (nM) 2C19
- Method: Determination of IC50 in a Cocktail Assay for CYPs 1A2, 2C9, 2C19, 2D6 and 3A4: This assay was performed in a standard 96-well plate design. […] The production of the metabolite of each probe substrate was determined after incubation for 10 min at 37° C. Quantitation of the metabolite peak area ratio against an internal standard (tolbutamide) was determined by LC/MS/MS analysis following acetonitrile treatment of the incubations. […]

# Molecule, Limit sign, IC50, nM
data = [
    ("O=S(=O)(c1cnc(N2CCN3C[C@H](O)C[C@H]3C2)s1)N1CCc2cccc(-c3cncn3CCc3ccc(F)cc3)c2C1", "=", 9230),
    ("CC(=O)Nc1ncc(S(=O)(=O)NCc2cccc(-c3cncn3CCc3ccc(F)cc3)c2)s1", "=", 357),
    ("O=S(=O)(c1cnc(N2CCN3C[C@H](O)C[C@H]3C2)s1)N1CCCC1c1ccccc1-c1cncn1CCc1ccc(F)cc1 (single isomer, unassigned) [Compound 22b]", ">", 10000),
]

====

Reported IC50 by item:
- System tested: CYP2C9 (Homo sapiens)
- Construct: 0.1 mg/mL protein human liver microsomes (BD Gentest); tissue BD Gentest; host or cells: human liver microsomes
- Sequence (P11712 whole entry): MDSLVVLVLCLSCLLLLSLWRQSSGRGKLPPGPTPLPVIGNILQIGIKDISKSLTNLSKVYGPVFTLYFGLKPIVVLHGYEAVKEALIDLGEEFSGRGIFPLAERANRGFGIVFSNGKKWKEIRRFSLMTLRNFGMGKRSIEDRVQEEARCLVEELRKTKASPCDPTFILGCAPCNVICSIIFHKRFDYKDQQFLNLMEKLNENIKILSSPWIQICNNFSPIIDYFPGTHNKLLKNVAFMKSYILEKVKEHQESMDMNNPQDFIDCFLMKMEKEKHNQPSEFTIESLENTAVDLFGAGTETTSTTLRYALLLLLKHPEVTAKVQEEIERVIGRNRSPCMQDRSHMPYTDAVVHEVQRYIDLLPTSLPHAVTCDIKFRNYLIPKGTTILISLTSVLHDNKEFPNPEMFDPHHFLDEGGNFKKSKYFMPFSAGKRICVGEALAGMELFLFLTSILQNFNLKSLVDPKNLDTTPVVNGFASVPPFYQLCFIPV
- Test: Cocktail assay for CYPs, diclofenac 4′-hydroxylation (CYP2C9), human liver microsomes
- Format: biochemical
- Condition label: 5 μM diclofenac, 0.1 mg/mL human liver microsomes, 10 min at 37° C.; read-out: CYP IC50 (nM) 2C9
Endpoint name: IC50

# Molecule, Experimental result
rows = [
    ("COCCn1cncc1-c1ccccc1C1CCCN1S(=O)(=O)c1cnc(NC(C)=O)s1 (centres unmarked)", "> 10000 nM"),
    ("CC(=O)Nc1ncc(S(=O)(=O)NC2(c3ccc(-c4cncn4[C@H](C)c4ccc(F)cc4)cc3)CC2)s1", "> 10000 nM"),
    ("CN1CCN(c2ncc(S(=O)(=O)NC(c3ccccc3)c3ccccc3-c3cncn3CCc3ccc(F)cc3)s2)CC1 (centres unmarked)", "> 10000 nM"),
    ("O=S(=O)(c1ccc(N2CCN(CCO)CC2)nc1)N1CCCC1c1ccccc1-c1cncn1CCc1ccc(F)cc1 (single isomer, unassigned) [Compound 35a]", "8600 nM"),
    ("O=C(C1CC1)N1CCCC1c1cccc(-c2cncn2CCc2ccc(F)cc2)c1 (centres unmarked)", "2330 nM"),
    ("CC(=O)Nc1ncc(S(=O)(=O)N2CCCC2c2ccccc2-c2cncn2C2CC2)s1 (centres unmarked)", "> 10000 nM"),
    ("CS(=O)(=O)N1CCCC1c1ccccc1-c1cncn1CCc1ccc(F)cc1 (single isomer, unassigned) [Compound 23b]", "> 10000 nM"),
    ("O=S(=O)(c1ccc(N2CCC(O)CC2)nc1)N1CCCC1c1ccccc1-c1cncn1CCc1ccc(F)cc1 (single isomer, unassigned) [Compound 32]", "3720 nM"),
    ("CN1CCCC1c1ccccc1-c1cncn1CCc1ccc(F)cc1 (single isomer, unassigned) [Compound 45a]", "> 10000 nM"),
    ("Cn1cncc1-c1ccccc1C1CCCN1S(=O)(=O)c1cnc(N2CCN3C[C@H](O)C[C@H]3C2)s1 (some centres unmarked)", "> 10000 nM"),
    ("O=S(=O)(NCc1ccccc1-c1cncn1CCc1ccc(F)cc1)c1cccnc1", "> 10000 nM"),
]

The reported measurements were obtained from patent US9975888B2.
